assay: Toxicity liver stage against HepG2, at 10uM; type: cell-based; parameters: test concentration 10 uM, cell line HepG2-A16-CD81EGFP; details: human, HepG2-A16-CD81EGFP cells; read-out: INHIBITION
The following compounds are listed with their measured cytotoxicity at 10 µM values.
Return type: number; implicit unit %.

## Task Name the reported cytotoxicity at 10 µM value associated with the compound COc1ccc(-c2n[nH]cc2CN2CCSCC2)c(OC)c1
## Result 6.4

Next:
## Task Name the reported cytotoxicity at 10 µM value associated with the compound CCC(C)(CC(=O)OC)NC(=O)c1ccc(C(C)=O)cc1 (configuration not stated)
## Result -4.89

## Task Also NCC1CCN(C2CCN(c3ccc(-c4ccco4)cc3)CC2)C1 (configuration not stated) , if possible.
## Result 93.9

## Task Also Cn1nc(COCC2CC2)c2c1CN(C(=O)c1ccno1)CC2 , if possible.
## Result -5.91

## Task Also CC(Cn1cccn1)NC(=O)NCCCN1CCCCCC1=O (configuration not stated) , if possible.
## Result 12.3

## Task Also COc1cc2c(cc1OC)S(=O)(=O)N(Cc1ccccc1)C2=O , if possible.
## Result 8.2

## Task Also N#Cc1cccc(CN2CC[C@@H]3CN(c4ncccn4)CCO[C@@H]3C2)c1 , if possible.
## Result -6.51

## Task Also CCOCCCNc1nc(O)cc(C2CC(=O)N(C)C2)n1 (configuration not stated) , if possible.
## Result 0.873

From: ChEMBL document CHEMBL4513216
